assay: in vitro; settings: human, hela cells, % viability
READOUT_KIND: viability at 28.5 h, 10 µM (%)
Report the figure in % without appending any unit label.

Tell me the measured viability at 28.5 h, 10 µM of Cc1ccccc1-n1c(C)cc(C(=O)CSc2nncn2C)c1C [CBK298330] , please.
91.9

Tell me the measured viability at 28.5 h, 10 µM of O=C(Nc1ccccc1)N1Cc2nc[nH]c2C[C@H]1c1nc(-c2ccccc2)no1 [CBK288997] , please.
84.3

Tell me the measured viability at 28.5 h, 10 µM of Cc1cccn2cc(CNC(=O)C(C)(C)C)nc12 [CBK304348] , please.
83.9

Tell me the measured viability at 28.5 h, 10 µM of O=C(CSc1nnc(-c2ccncc2)n1C1CCCCC1)Nc1ncc2c(n1)CC(c1ccccc1)CC2=O (centres unmarked) [CBK266177] , please.
94.3

Tell me the measured viability at 28.5 h, 10 µM of O=C(c1coc(COc2cccc(F)c2)n1)N1CC(n2cccn2)C1 [CBK306842] , please.
77.2

----------
For each record, write down the corresponding viability at 28.5 h, 10 µM.
assay: in vitro; details: human, hela cells, % viability
Number first, unit second.

Tell me the measured viability at 28.5 h, 10 µM of FC(F)(F)c1[nH]c2ncccc2c1CN1CCN2CCCCC2C1 (stereo not drawn) [CBK285355] , please.
80.9%

Tell me the measured viability at 28.5 h, 10 µM of FC(F)(F)c1cccnc1OCCCc1ccncc1 [CBK115782] , please.
93.9%

Tell me the measured viability at 28.5 h, 10 µM of COc1ccc(-c2noc(-c3cnccn3)n2)c(OC)c1 [CBK287878] , please.
83.6%

Tell me the measured viability at 28.5 h, 10 µM of NC(=O)C1(Cc2cccc(-c3cccs3)c2)CCN(C(=O)Cc2cccc(F)c2)CC1 [CBK285783] , please.
98%

Tell me the measured viability at 28.5 h, 10 µM of CN1CCN(c2ccc(-c3ccc(Cl)cc3)cn2)CC1 [CBK036945] , please.
95.2%

Tell me the measured viability at 28.5 h, 10 µM of CCC(=O)NCc1csc(-c2ccccc2)n1 [CBK092344] , please.
90.1%

Tell me the measured viability at 28.5 h, 10 µM of CCn1nc(C)c(C(C)NC(=O)c2ccn(C(F)F)n2)c1C (stereo not drawn) [CBK281534] , please.
79.8%

Tell me the measured viability at 28.5 h, 10 µM of CCOC(=O)C(NC(=O)c1cn(C)cn1)c1cccc(C)c1C (stereo not drawn) [CBK304098] , please.
107%

Tell me the measured viability at 28.5 h, 10 µM of Cc1ccc(S(=O)(=O)N(CC(=O)O)c2cccc(Cl)c2)cc1 [CBK262387] , please.
91.7%

Tell me the measured viability at 28.5 h, 10 µM of COc1ccc(CNC(=O)CN2C(=O)[C@@H]3CCCN3C(=O)c3ccccc32)cc1 [CBK286322] , please.
89.7%

Tell me the measured viability at 28.5 h, 10 µM of FC(F)(F)c1ccc(CN2CCC(Oc3nccnc3OC3CCCCC3)CC2)cc1 [CBK082859T] , please.
92.1%

Tell me the measured viability at 28.5 h, 10 µM of O=C(CSCCO)Nc1ccc(N2CCOCC2)cc1 [CBK269616] , please.
89.7%

Tell me the measured viability at 28.5 h, 10 µM of OCCOc1nc2ccccc2s1 [CBK001812] , please.
97.2%

Tell me the measured viability at 28.5 h, 10 µM of CC(C)(C)C(=O)N1CCC(c2nnc(-c3ccsc3)o2)CC1 [CBK283378] , please.
89.5%

Tell me the measured viability at 28.5 h, 10 µM of O=C(O)CSc1nnc(-c2ccc(F)cc2)o1 [CBK068115] , please.
104%

Tell me the measured viability at 28.5 h, 10 µM of COc1cccc2sc(Nc3nc4ccc(S(C)(=O)=O)cc4s3)nc12 [CBK287472] , please.
104%

Tell me the measured viability at 28.5 h, 10 µM of O=C(Nc1cccc(-c2nnn[nH]2)c1)c1ccc(Cl)c(Cl)c1 [CBK144713] , please.
89.3%

Tell me the measured viability at 28.5 h, 10 µM of O=C1CO[C@H]2CN(S(=O)(=O)c3ccccc3)C[C@H]2N1c1ccccc1 [CBK289236] , please.
93.7%

Tell me the measured viability at 28.5 h, 10 µM of O=C(CCC(=O)c1ccc(F)cc1)Nc1cccnc1 [CBK266901] , please.
89.4%

Tell me the measured viability at 28.5 h, 10 µM of O=C(CN1C(=O)c2ccccc2C1=O)Nc1sc2c(c1C(=O)NCc1ccco1)CCCC2 [CBK265670] , please.
87.9%

Tell me the measured viability at 28.5 h, 10 µM of S=c1[nH]nc(-c2ccco2)n1-c1ccc(Cl)cc1 [CBK023586] , please.
97.8%

Tell me the measured viability at 28.5 h, 10 µM of CC(C)C(=O)N1CCC(n2c(=O)oc3ccc(Cl)cc32)CC1 [CBK284339] , please.
79.9%

Tell me the measured viability at 28.5 h, 10 µM of O=C(Nc1cncc(OC2CCNCC2)n1)c1cnccn1 [CBK036372T] , please.
93%

Tell me the measured viability at 28.5 h, 10 µM of O=C(NCCN1CCOCC1)c1cc(-c2ccc(F)cc2)nc2ccc(Br)cc12 [CBK294450] , please.
89.9%

Tell me the measured viability at 28.5 h, 10 µM of Cc1nc(NC(=O)C2CC(=O)N(c3cccc(C(C)C)c3)C2)sc1-c1n[nH]c(=S)n1C (stereo not drawn) [CBK295306] , please.
91%

Tell me the measured viability at 28.5 h, 10 µM of O=C1CCCN1C(=O)CN1CCOCC1 [CBK261467] , please.
117%

Tell me the measured viability at 28.5 h, 10 µM of O=C(NCCc1c[nH]cn1)N1CCN(Cc2ccccc2)CC1 [CBK155629] , please.
96.4%

Tell me the measured viability at 28.5 h, 10 µM of Cc1c(C(=O)N2CCC(C(=O)c3cccnc3)CC2)oc2ccccc12 [CBK283954] , please.
88.9%

Tell me the measured viability at 28.5 h, 10 µM of O=C(NCc1cccs1)C1(Cc2cccc(-c3ccc(F)c(F)c3)c2)CCOCC1 [CBK285569] , please.
93.2%

Tell me the measured viability at 28.5 h, 10 µM of CCN(CC)C(=O)C1CCCN(Cc2cccc(Oc3ccccc3)c2)C1 (stereo not drawn) [CBK261581] , please.
92.6%

Tell me the measured viability at 28.5 h, 10 µM of FC(F)(F)c1cc(-c2cc(N3CCC(N4CCCCC4)CC3)ncn2)cc(C(F)(F)F)c1 [CBK037692] , please.
92.6%

Tell me the measured viability at 28.5 h, 10 µM of CCOc1nnc(CN(CCC(N)=O)c2ccc(F)cc2)s1 [CBK305536] , please.
110%

Tell me the measured viability at 28.5 h, 10 µM of NC(=O)CCN1CCCC2(CCN(C(=O)c3ccoc3)C2)C1 (stereo not drawn) [CBK132816] , please.
96.9%

Tell me the measured viability at 28.5 h, 10 µM of CCCN1CCC(N(C)CCN(CC)CC)CC1 [CBK261935] , please.
104%

Tell me the measured viability at 28.5 h, 10 µM of COCC(=O)N1CCc2sccc2C1c1ccc(NCc2ccc(F)cc2F)cc1 (stereo not drawn) [CBK286460] , please.
100%

Tell me the measured viability at 28.5 h, 10 µM of CSc1nc(NC(=O)c2ccoc2)cc(N2CCNCC2)n1 [CBK050314T] , please.
88.9%

Tell me the measured viability at 28.5 h, 10 µM of Cc1ccc(-c2nccnc2OCCC(C)C)c(C)c1 [CBK106988] , please.
102%

Tell me the measured viability at 28.5 h, 10 µM of c1ccc(CN2CCN(c3nccnc3OCCN3CCOCC3)CC2)cc1 [CBK082885T] , please.
104%

Tell me the measured viability at 28.5 h, 10 µM of O=C(O)c1cc(-c2ccc(/C=C3\NC(=O)N(Cc4ccccc4)C3=O)o2)ccc1Cl [CBK078117] , please.
98.9%
